Tested on: WPMY1-CANX-COX4
Test: lowest phenotypically active concentration; higher = less potent
Conditions: treatment time: 24 h
REPORTED PROPERTY: lowest phenotypically active concentration (µM)
Numbers only, in µM.

Examples with answers:
NC1(C(=O)N[C@@H](CCO)c2ccc(Cl)cc2)CCN(c2ncnc3[nH]ccc23)CC1	1
COc1ccc2c(NC(=O)Nc3cccc(C(F)(F)F)n3)ccnc2c1	1
COc1cc2nc(N3CCN(C(=O)C4COc5ccccc5O4)CC3)nc(N)c2cc1OC (stereo not given)	9
CN1C(=O)/C(=C2/Nc3ccccc3/C2=N/O)c2ccc(Br)cc21	9
Cc1noc(C)c1-c1cc(O)cc(C(O)c2ccccc2)c1 (stereo not given)	3
COc1cc2nc(-c3cc(F)ccc3O)nc(N[C@@H]3CNC[C@H]3C(C)(C)O)c2cc1OC	1
Cc1cccc(C)c1OCC(=O)N[C@@H](Cc1ccccc1)[C@@H](O)C[C@H](Cc1ccccc1)NC(=O)[C@H](C(C)C)N1CCCNC1=O	9
CC(=O)Nc1ccc(C(=O)Nc2ccccc2N)cc1	3

Hi! Can you tell me lowest phenotypically active concentration for each of these compounds?
1. O=C(Nc1ccncc1)c1cc([N+](=O)[O-])ccc1Cl
2. N#Cc1cccc(-c2c[nH]c3ncnc(N4CCOCC4)c23)c1

Result block:
9
9

Data origin, for the record: the supplement of paper PMC7411054
